test system: SR leukemia; test: NCI tumour cell line growth inhibition, 48 h
Quick reference: TGI of the listed items.
Express it in µM; write the number only.

S=C(NCc1ccccn1)N/N=C/c1ccccn1 :: 0.0113
OCCc1ccsc1-c1sc(-c2cc(CCO)c(-c3sc(-c4cc(CCO)c(-c5sccc5CCO)s4)cc3CCO)s2)cc1CCO :: 2.59

In the following, a different molecule is considered.
Query: Query TGI for O=C1/C(=C/c2ccc(Cl)cc2)CCC1CNc1ccc(Cl)cc1 (stereo not given)
Response: 43.8

* * *

tested on: OVCAR-4 ovarian; test: NCI tumour cell line growth inhibition, 48 h
Quick reference: TGI of the listed items.

Example compounds with recorded TGI:
O=CN1CCN(c2ccc3ccc(=O)[nH]c3n2)CC1 :: > 100 µM
Cc1cccc2c(=O)c3c(O)cc(O)cc3n(C)c12 :: > 100 µM

In the following, a different compound is considered.
Query: Query TGI for CCn1c(-c2nonc2N)nc2ccccc21
Response: > 25 µM

Origin of measurements: PubChem BioAssay (NCI)
